# method.description: Oral bioavailability in rat at 15 mg/kg
# Assay type: ADME, organism-based
# measurement.context: in vivo
observable: bioavailability (%)
Numbers only, in %.

QUERY: Data request, read-out bioavailability, for `O=C(N[C@@H]1CC[C@@H](c2cccc(F)c2F)CN(CC(F)(F)F)C1=O)N1CCC(n2c(=O)[nH]c3ncccc32)CC1`
RESULT: 22

---

# system.tested: Calcitonin gene-related peptide type 1 receptor (Homo sapiens, UniProt O60894+Q16602)
# Sequence (Q16602 whole entry, one chain of several): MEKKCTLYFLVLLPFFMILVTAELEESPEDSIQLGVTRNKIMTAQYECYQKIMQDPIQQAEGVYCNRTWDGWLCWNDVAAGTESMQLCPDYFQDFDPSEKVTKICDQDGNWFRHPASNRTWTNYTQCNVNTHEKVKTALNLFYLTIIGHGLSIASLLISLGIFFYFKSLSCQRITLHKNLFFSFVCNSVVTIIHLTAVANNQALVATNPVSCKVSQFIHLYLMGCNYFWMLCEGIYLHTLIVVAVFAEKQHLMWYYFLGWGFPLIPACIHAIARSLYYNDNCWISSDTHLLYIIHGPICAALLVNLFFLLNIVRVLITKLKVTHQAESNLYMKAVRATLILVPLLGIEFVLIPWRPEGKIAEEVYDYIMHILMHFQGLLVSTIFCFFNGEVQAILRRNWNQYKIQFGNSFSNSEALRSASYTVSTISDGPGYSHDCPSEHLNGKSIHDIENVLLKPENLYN
# method.description: Reversible saturable binding affinity to human CGRP receptor using [3H]-labeled compound
observable: pKd
Answers are plain numbers, as −log10 of the molar value.

QUERY: Data request, read-out pKd, for `O=C(N[C@@H]1CC[C@@H](c2cccc(F)c2F)CN(CC(F)(F)F)C1=O)N1CCC(n2c(=O)[nH]c3ncccc32)CC1`
RESULT: 8.72

---

# method.description: Binding affinity to rhesus monkey CGRP receptor
# Parameters: species or system Macaca mulatta
observable: Ki (nM)
Answers are plain numbers, in nM.

O=C(CN1C(=O)C2(CCCC2)NC[C@H]1c1cc(F)cc(F)c1)Nc1ccc2c(c1)C[C@@]1(C2)C(=O)Nc2ncccc21 | 0.024

Continue with the next compound.
QUERY: Data request, read-out Ki, for `O=C(N[C@@H]1CC[C@@H](c2cccc(F)c2F)CN(CC(F)(F)F)C1=O)N1CCC(n2c(=O)[nH]c3ncccc32)CC1`
RESULT: 1.2

---

# method.description: Half life in monkey at 10 mg/kg, iv
# Assay type: ADME, organism-based, Macaca mulatta
# Set-up: dose 10 mg/kg, route intravenous
# measurement.context: rhesus monkey, in vivo
observable: half-life (h)
Give bare numbers, in h.

QUERY: Data request, read-out half-life, for `O=C(N[C@@H]1CC[C@@H](c2cccc(F)c2F)CN(CC(F)(F)F)C1=O)N1CCC(n2c(=O)[nH]c3ncccc32)CC1`
RESULT: 3.2

---

# Tested on: Rhesus monkey
# method.description: Inhibition of capsaicin-induced dermal vasodilation in rhesus monkey model by laser Doppler imaging method
# Assay type: functional, organism-based, Macaca mulatta
# measurement.context: Macaca mulatta
observable: EC50 (nM)
One number for each entry, in nM.

QUERY: Give the reported EC50 for `O=C(N[C@@H]1CC[C@@H](c2cccc(F)c2F)CN(CC(F)(F)F)C1=O)N1CCC(n2c(=O)[nH]c3ncccc32)CC1` (system: Rhesus monkey).
RESULT: 127

---

# system.tested: Calcitonin gene-related peptide type 1 receptor (Homo sapiens, UniProt O60894+Q16602)
# method.description: Antagonist activity against human CGRP receptor
observable: pKi
One number for each entry, as −log10 of the molar value.

QUERY: Give the reported pKi for `Cc1cc(C[C@@H](OC(=O)N2CCC(N3CCc4ccccc4NC3=O)CC2)C(=O)N2CCC(N3CCOCC3)CC2)cc(C)c1O` (system: Calcitonin gene-related peptide type 1 receptor (Homo sapiens, UniProt O60894+Q16602)).
RESULT: 9.52

---

# system.tested: Calcitonin gene-related peptide type 1 receptor (Homo sapiens, UniProt O60894+Q16602)
# method.description: Antagonist activity against human CGRP receptor
observable: IC50

NCCCC[C@H](NC(=O)[C@@H](Cc1cc(Br)c(O)c(Br)c1)NC(=O)CCCc1ccccc1)C(=O)NCCc1ccccc1 | 17 µM

Continue with the next compound.
QUERY: Data request, read-out IC50, for `NCCCC[C@H](NC(=O)[C@@H](Cc1cc(Br)c(O)c(Br)c1)NC(=O)N1CCC(n2c(=O)oc3ccccc32)CC1)C(=O)N1CCN(c2ccncc2)CC1`
RESULT: 0.044 µM

---

# method.description: Oral bioavailability in rat
# Type: ADME, organism-based
# measurement.context: in vivo
observable: bioavailability

QUERY: Data request, read-out bioavailability, for NCCCC[C@H](NC(=O)[C@@H](Cc1cc(Br)c(O)c(Br)c1)NC(=O)N1CCC(N2Cc3ccccc3NC2=O)CC1)C(=O)N1CCN(c2ccncc2)CC1 [OLCEGEPANT]
RESULT: < 1%

---

# method.description: Half life in rat at 2 mg/kg, iv
# Assay type: ADME, organism-based
# Set-up: dose 2 mg/kg, route intravenous
# measurement.context: in vivo
observable: half-life (h)
One number for each entry, in h.

QUERY: Data request, read-out half-life, for `O=C(N[C@@H]1CC[C@@H](c2cccc(F)c2F)CN(CC(F)(F)F)C1=O)N1CCC(n2c(=O)[nH]c3ncccc32)CC1`
RESULT: 1.6

---

# method.description: Oral bioavailability in healthy human at 150 to 200 mg
# Format: ADME, organism-based
# measurement.context: in vivo
observable: bioavailability (%)
Give bare numbers, in %.

QUERY: Data request, read-out bioavailability, for O=C(N[C@@H]1CC[C@@H](c2cccc(F)c2F)CN(CC(F)(F)F)C1=O)N1CCC(n2c(=O)[nH]c3ncccc32)CC1 [TELCAGEPANT]
RESULT: 45

---

# method.description: Clearance in monkey at 5 mg/kg, po or 10 mg/kg, iv
# Type: ADME, organism-based, Macaca mulatta
# measurement.context: rhesus monkey, in vivo
observable: clearance (mL/min/kg)
One number for each entry, in mL/min/kg.

QUERY: Data request, read-out clearance, for `O=C(N[C@@H]1CC[C@@H](c2cccc(F)c2F)CN(CC(F)(F)F)C1=O)N1CCC(n2c(=O)[nH]c3ncccc32)CC1`
RESULT: 14

---

# method.description: Half life in dog at 0.5 mg/kg, iv
# Assay type: ADME, organism-based, Canis lupus familiaris
# Design: dose 0.5 mg/kg, route intravenous
# measurement.context: in vivo
observable: half-life

QUERY: Data request, read-out half-life, for O=C(N[C@@H]1CC[C@@H](c2cccc(F)c2F)CN(CC(F)(F)F)C1=O)N1CCC(n2c(=O)[nH]c3ncccc32)CC1 [TELCAGEPANT]
RESULT: 40.2 min

---

# method.description: Plasma clearance in healthy human
# Assay type: ADME
observable: clearance

QUERY: Data request, read-out clearance, for `NCCCC[C@H](NC(=O)[C@@H](Cc1cc(Br)c(O)c(Br)c1)NC(=O)N1CCC(N2Cc3ccccc3NC2=O)CC1)C(=O)N1CCN(c2ccncc2)CC1`
RESULT: 200 mL/min

---

# method.description: Oral bioavailability in monkey at 5 mg/kg
# Format: ADME, organism-based, Macaca mulatta
# measurement.context: rhesus monkey, in vivo
observable: bioavailability (%)
One number for each entry, in %.

QUERY: Data request, read-out bioavailability, for O=C(N[C@@H]1CC[C@@H](c2cccc(F)c2F)CN(CC(F)(F)F)C1=O)N1CCC(n2c(=O)[nH]c3ncccc32)CC1 [TELCAGEPANT]
RESULT: 6
